Molecular target: Prolyl endopeptidase FAP (Homo sapiens, UniProt Q12884)
Sequence (Q12884 whole entry): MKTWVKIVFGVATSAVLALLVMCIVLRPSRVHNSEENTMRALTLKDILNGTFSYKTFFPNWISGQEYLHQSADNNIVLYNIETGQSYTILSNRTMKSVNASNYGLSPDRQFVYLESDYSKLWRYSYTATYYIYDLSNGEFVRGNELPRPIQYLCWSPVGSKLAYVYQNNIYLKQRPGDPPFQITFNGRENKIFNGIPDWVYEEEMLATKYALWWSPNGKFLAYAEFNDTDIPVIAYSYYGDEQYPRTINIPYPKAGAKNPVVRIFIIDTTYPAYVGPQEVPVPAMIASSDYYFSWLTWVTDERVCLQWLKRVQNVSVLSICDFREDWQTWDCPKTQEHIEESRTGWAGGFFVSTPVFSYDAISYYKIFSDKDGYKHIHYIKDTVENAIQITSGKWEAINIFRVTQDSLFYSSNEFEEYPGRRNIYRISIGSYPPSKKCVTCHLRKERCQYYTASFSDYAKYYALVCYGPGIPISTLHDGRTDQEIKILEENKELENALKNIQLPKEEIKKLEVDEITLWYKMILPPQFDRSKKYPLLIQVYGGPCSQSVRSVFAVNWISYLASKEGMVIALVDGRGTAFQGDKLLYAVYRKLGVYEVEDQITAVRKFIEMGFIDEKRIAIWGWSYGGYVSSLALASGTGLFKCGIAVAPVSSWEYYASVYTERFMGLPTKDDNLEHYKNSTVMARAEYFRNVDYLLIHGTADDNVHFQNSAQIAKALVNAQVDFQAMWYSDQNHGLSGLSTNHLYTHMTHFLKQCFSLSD
Assay: hFAP Binding Assay
assay metric: koff (s⁻¹)

- C[C@]1(F)CCN(c2ccc3nccc(C(=O)NCC(=O)N4CSC[C@H]4C#N)c3c2)C1 [US20230312550, Example 198]: 0.00011
- N#C[C@@H]1CSCN1C(=O)CNC(=O)c1ccnc2cc(Cl)c(N3CCOCC3)cc12 [US20230312550, Example 179]: 0.00016
- N#C[C@@H]1CSCN1C(=O)CNC(=O)c1ccnc2ccc(N3C4CCC3COC4)cc12 [US20230312550, Example 98]: 1.5e-05
- N#C[C@@H]1CSCN1C(=O)CNC(=O)c1ccnc2ccc(N3CC4CC(C3)O4)cc12 [US20230312550, Example 77]: 6.6e-05
- COC1CN(c2ccc3nccc(C(=O)NCC(=O)N4CSC[C@H]4C#N)c3c2)C1 [US20230312550, Example 66]: 0.00022
- C[C@]1(O)CCN(c2ccc3nccc(C(=O)NCC(=O)N4CSC[C@H]4C#N)c3c2)C1 [US20230312550, Example 168]: 4.8e-05
- N#C[C@@H]1CSCN1C(=O)CNC(=O)c1ccnc2ccc(N3CCC4(CC4)C3)cc12 [US20230312550, Example 49]: 0.00017
- N#C[C@@H]1CSCN1C(=O)CNC(=O)c1ccnc2ccc(N3C4CCCC3COC4)cc12 [US20230312550, Example 86]: 5.8e-05
- CC1CN(c2ccc3nccc(C(=O)NCC(=O)N4CSC[C@H]4C#N)c3c2)C1 [US20230312550, Example 25]: 0.00011
- CC1(C)CCN(c2ccc3nccc(C(=O)NCC(=O)N4CSC[C@H]4C#N)c3c2)C1=O [US20230312550, Example 12]: 6.4e-05
- C[C@H]1CCCN1c1ccc2nccc(C(=O)NCC(=O)N3CSC[C@H]3C#N)c2c1 [US20230312550, Example 65]: 0.00047
- CC1(CS(C)(=O)=O)CN(c2ccc3nccc(C(=O)NCC(=O)N4CSC[C@H]4C#N)c3c2)C1 [US20230312550, Example 188]: 2.2e-05
- N#C[C@@H]1CSCN1C(=O)CNC(=O)c1ccnc2ccc(N3CCCC[C@H](F)C3)cc12 [US20230312550, Example 60]: 0.00017
- N#C[C@@H]1CSCN1C(=O)CNC(=O)c1ccnc2ccc(N3C[C@@H]4[C@H](C3)[C@H]4C(F)(F)F)cc12 [US20230312550, Example 208]: 0.00026

---

Target: Prolyl endopeptidase FAP (Homo sapiens)
Experiment: hFAP Binding Assay
Settings: read-out: kon (M-1-s-1)
Recorded kon for the following compounds
assay metric: kon (M⁻¹ s⁻¹)

* N#C[C@@H]1CSCN1C(=O)CNC(=O)c1ccnc2ccc(N3CCCCO3)cc12 | 730000
* Cc1nc(C)c(-c2ccc3nccc(C(=O)NCC(=O)N4CSC[C@H]4C#N)c3c2)o1 | 1.8e+06
* N#C[C@@H]1CSCN1C(=O)CNC(=O)c1ccnc2ccc(N3CCOCC34CCC4)cc12 | 3e+06
* N#C[C@@H]1CSCN1C(=O)CNC(=O)c1ccnc2ccc(N3C[C@@H]4CCC[C@@H]43)cc12 (mixture of isomers) | 1.2e+06
* N#C[C@@H]1CSCN1C(=O)CNC(=O)c1ccnc2ccc(N3CCCC[C@H]3CF)cc12 | 5.4e+06
* N#C[C@@H]1CSCN1C(=O)CNC(=O)c1ccnc2ccc(N3CCSCC3)cc12 | 4.1e+06
* N#C[C@@H]1CSCN1C(=O)CNC(=O)c1ccnc2ccc(N3CCC(F)(F)CC3)cc12 | 900000
* C[C@H]1COCCCN1c1ccc2nccc(C(=O)NCC(=O)N3CSC[C@H]3C#N)c2c1 | 4.1e+06
* CC1CN(c2ccc3nccc(C(=O)NCC(=O)N4CSC[C@H]4C#N)c3c2)C1 | 1.4e+06
* N#C[C@@H]1CSCN1C(=O)CNC(=O)c1ccnc2ccc(N3C4CCC3COC4)cc12 | 1.6e+06
* N#C[C@@H]1CSCN1C(=O)CNC(=O)c1ccnc2ccc(N3CC(F)(C(F)(F)F)C3)cc12 | 1.6e+06
* Cc1cc2nccc(C(=O)NCC(=O)N3CSC[C@H]3C#N)c2cc1N1CCOCC1 | 370000
* CC1(C)CCCN1c1ccc2nccc(C(=O)NCC(=O)N3CSC[C@H]3C#N)c2c1 | 8e+06
* C[C@@H]1CCN(c2ccc3nccc(C(=O)NCC(=O)N4CSC[C@H]4C#N)c3c2)C1=O | 1.6e+06
